# Tested Target: trypsin
# Assay Explanation: Fab TRF, 2.4 ug/mL Fab
Measurement Label: TRF signal

Consider the following illustrative entries.
- Binder: "KB_B02 (scFv, V domains shown) VH: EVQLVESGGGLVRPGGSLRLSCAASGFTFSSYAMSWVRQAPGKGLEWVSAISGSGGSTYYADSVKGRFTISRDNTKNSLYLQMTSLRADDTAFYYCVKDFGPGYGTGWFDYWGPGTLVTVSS VL: AVNWYQQLPGKAPKLLIYAAVGCPRILMRCKQDSDCLAGCVCGPNGFCGTGSGIPERFSGSKSGNTASLTISGLQAEDEGDYYCAAWDDSLSGPVFGGGTKLTVLG"
  Observed Measurement: 15900
- Binder: "KB_A10 (scFv, V domains shown) VH: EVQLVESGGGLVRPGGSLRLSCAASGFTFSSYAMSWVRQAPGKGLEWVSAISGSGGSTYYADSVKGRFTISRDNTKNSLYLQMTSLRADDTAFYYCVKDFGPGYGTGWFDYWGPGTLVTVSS VL: AVNWYQQLPGKAPKLLIYAAGGCPRILMRCKQDSDCLAGCVCGPNGFCGSNSGVPDRFSGSKSGNTASLTISGLQSEDEADYYCAAWDDSLSGVVFGGGTQLTVLG"
  Observed Measurement: 71900
- Binder: "KB_A11 (scFv, V domains shown) VH: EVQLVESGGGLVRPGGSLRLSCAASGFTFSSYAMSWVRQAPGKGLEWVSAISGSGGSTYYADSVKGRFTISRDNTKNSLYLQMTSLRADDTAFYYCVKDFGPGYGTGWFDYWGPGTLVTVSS VL: YLNWYQQKPGKAPKLLIYAAEICPRILMRCKQDSDCLAGCVCGPNGFCGPSSGIPARFSGSGYGTDFTLTINNIESEDAAYYFCLQHDNFPYTFGQGTKVEIKR"
  Observed Measurement: 141000
- Binder: "KB_A06 (scFv, V domains shown) VH: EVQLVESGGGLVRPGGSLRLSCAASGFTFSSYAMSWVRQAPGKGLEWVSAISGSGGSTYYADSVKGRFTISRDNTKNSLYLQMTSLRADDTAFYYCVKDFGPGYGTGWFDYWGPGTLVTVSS VL: AVNWYQQLPGKAPKLLIYAAVRCPRILMRCKQDSDCLAGCVCGPNGFCGTPSGIPERFSGSIDRSTNSASLTISGLKTEDEADYYCQSYDSSNLNWVFGGGTKLTVLG"
  Observed Measurement: 212000
- Binder: "KB_C07 (scFv, V domains shown) VH: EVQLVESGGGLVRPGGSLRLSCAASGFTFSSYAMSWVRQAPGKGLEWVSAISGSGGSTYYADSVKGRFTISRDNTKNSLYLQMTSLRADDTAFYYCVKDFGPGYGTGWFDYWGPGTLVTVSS VL: AVNWYQQLPGKAPKLLIYAAVGCPRILMRCKQDSDCLAGCVCGPNGFCGSASGVSDRFSGSKSGTSASLAISGLRSEDEADYYCASWDDSLRGYVFGTGTKVTVLG"
  Observed Measurement: 247000

Please supply the value of reported TRF signal for the item KB_C09 (scFv, V domains shown) VH: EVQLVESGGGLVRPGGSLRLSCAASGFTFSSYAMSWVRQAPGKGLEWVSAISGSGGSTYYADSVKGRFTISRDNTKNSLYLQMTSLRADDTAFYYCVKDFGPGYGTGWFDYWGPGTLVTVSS VL: AVNWYQQLPGKAPKLLIYAAGRCPRILMRCKQDSDCLAGCVCGPNGFCGGGSGVPDRFSGSIDSSSNSASLTISGLRAEDEADYYCQSYDSSNHWVFGGGTKLTVLG
205000
